Dear all, I have gathered published pKi values for 5-hydroxytryptamine receptor 6 (Homo sapiens, UniProt P50406); the list follows.
pKi: −log10 of the molar value.
Would you please tag the item T when its pKi is 7 or above, and F when it is below?

{"columns": ["Compound", "System Name", "Discrete Label"],
 "data": [
  ["CC1=C(CCN(C)C)c2cc(NS(=O)(=O)c3cccc4ccccc34)ccc2C1", "5-hydroxytryptamine receptor 6 (Homo sapiens, UniProt P50406)", "F"],
  ["O=S(=O)(N[C@H]1CCN(CCOc2ccccc2-c2ccccc2)C1)c1ccc(F)cc1", "5-hydroxytryptamine receptor 6 (Homo sapiens, UniProt P50406)", "F"],
  ["O=S(=O)(c1ccc2ccccc2c1)n1ccc2ccc(N3CCN4C=CCC4C3)cc21 (stereo not drawn)", "5-hydroxytryptamine receptor 6 (Homo sapiens, UniProt P50406)", "T"],
  ["O=S(=O)(c1cccc2ncccc12)N1CC[C@@H]1CCN1CCN(c2nsc3ccccc23)CC1", "5-hydroxytryptamine receptor 6 (Homo sapiens, UniProt P50406)", "F"],
  ["COc1cc(OC)c2c3c(n(S(=O)(=O)c4ccc(N)cc4)c2c1)CCCC3", "5-hydroxytryptamine receptor 6 (Homo sapiens, UniProt P50406)", "F"]
]}

Now, please, on to the next compound.
Determine whether this compound has pKi no lower than 7: O=S(=O)(NC1CCN(CC(O)COc2ccccc2-c2ccccc2)CC1)c1cccc(Cl)c1 (stereo not drawn)
F
